System: SNB-19 CNS
Assay: NCI-60 one-dose screen, 48 h (100 = growth as untreated, 0 = no growth, -100 = all killed)
Conditions: 10 µM unless noted
The panel holds about 83,000 compounds, 20% with a hit somewhere; the sample as a whole holds those more often.
Recorded growth, one value per entry.
ATTRIBUTE_MEASURED: growth (%)

COMPOUND	UNIT_OF_MEASUREMENT	RECORDED_MEASUREMENT
COc1cc(C2CC(c3cc(OC)c(OC)c(OC)c3)=NN2c2ccccc2)ccc1OCc1ccc(C)cc1 (stereo not given)	%	91.7
Cc1cc2nc3c4ccccc4n(CCNCCN(C)C)c3nc2cc1C	%	35.3
COc1cc2nc(SCc3ccccc3)n(-c3ccc(Cl)cc3)c(=O)c2cc1OC	%	-30
COc1ccc2[nH]c(O)c(N=NC(=O)COc3ccc(NC(=O)Nc4ccccc4)cc3)c2c1	%	14.6
Cc1c(C(=O)NNC(=O)c2ccc(Cl)cc2)nnn1-c1ccc(Cl)cc1	%	95.1
CC(=O)Nc1ccc(-c2nc3cc(-c4ccc(O)cc4)ccc3n2C)cc1	%	68.8
N/C(=N\c1nc2ccccc2s1)NC(=O)NCCCCCCO	%	51.6
CNC(=O)c1cc(Oc2ccc3nc(NC(=O)Nc4cccc(OC(F)(F)F)c4)sc3c2)ccn1	%	-46.6
Cn1cc(-c2cc3nc(-c4cn(C)c5ncc(Br)cc45)cc(N)n3n2)c2cc(Cl)ccc21	%	-74.2
N#Cc1c(-c2cccnc2)cc(-c2ccc3ccccc3c2)[nH]c1=O	%	66.1
C=C1CCC2C3(C)COC(c4ccccc4F)OC3CCC2(C)C1CC(O)C1=CCOC1=O (stereo not given)	%	81.5
COc1ccc(-c2ccnc(SCc3cc4cc(OC)ccc4[nH]c3=O)n2)cc1	%	36.3
COC1=C[C@]23CCC(=O)N2CCc2cc4c(cc2[C@@H]3[C@@H]1OC(=O)[C@H](C)O)OCO4	%	-1.61
CC(=O)Oc1ccc(/C=C/C(=O)N[C@@H](Cc2ccccc2)C(O)C(=O)NCc2ccccc2)cc1OC(C)=O (stereo not given in full)	%	83.5
CN(C)c1nc(NCCNS(=O)(=O)c2ccc(C3=Nc4c(N)nc(N)nc4NC(c4ccc(C(F)(F)F)cc4)C3)cc2)nc(Nc2ccc(F)cc2)n1 (stereo not given)	%	22.9
COc1cc(C2CC(c3cc(OC)c(OC)c(OC)c3)=NN2C(C)=O)ccc1OCc1ccccc1 (stereo not given)	%	52.2
CC(C)c1sc(NC(=O)c2cc(NC(=O)c3cc(NC(=O)c4nccn4C)cn3C)cn2C)nc1C(=O)NCCCN(C)C	%	48.1
O=C(/C=C/c1cccc(OCc2ccc(F)cc2)c1)c1nc2ccccc2[nH]1	%	68.4
COc1c(F)ccc(C(=O)Nc2ccc3nc(NC(=O)C4CCCN(S(=O)(=O)c5ccc(Cl)cc5)C4)sc3c2)c1F (stereo not given)	%	82.5
O=C(CN1C(=O)/C(=C/c2ccccc2F)SC1=S)N1CCOCC1	%	91
CN(C)CCn1c2ccccc2c2nc3cc(C(F)(F)F)ccc3nc21	%	36.4
N/C(=N\N=C\c1ccc([N+](=O)[O-])cc1)c1c(N)nc(=S)[nH]c1-c1ccc(Cl)cc1Cl	%	74.9
Cc1cc(C)cc(NC(=O)Cn2cc(COn3nnc4ccccc43)nn2)c1	%	96.2
COc1cc2c(c(OC)c1OC)C(=O)CC(c1cccc(NC(=O)[C@@H](N)CC(C)C)c1)O2 (stereo not given in full)	%	91.2
Cc1ncsc1-c1ccc(CNC(=O)[C@@H]2C[C@@H](O)CN2C(=O)[C@@H](NC(=O)C2(F)CC2)C(C)(C)C)c(OCCOCCOCCOCCOc2nc(Nc3cc(S(C)(=O)=O)ccc3N[C@@H](c3cccc4c3OC(F)(F)O4)c3ncccc3Cl)nc(N3CCNCC3)n2)c1	%	64.8
COc1ccc(/C=C/c2nc3ccccc3nc2Nc2cccc(C)c2)cc1	%	98.5
O=C(c1ccccc1)c1ccc2nc(-c3cccc(Cl)c3)[nH]c2c1	%	103
CCCCNC(=S)Nc1ccc(OCc2nc3ccccc3[nH]2)cc1	%	70
CC12CC[C@@H]3[C@]4(C)COC(c5c(F)cccc5F)O[C@@H]4CC[C@@]3(C)[C@@H]1CC(C1=CCOC1=O)O2 (stereo not given in full)	%	63.2
CN(C)CCCNC(=O)c1cc(NC(=O)c2cc(NC(=O)c3ccc(/C=C/c4ccccc4)cc3)cn2C)cn1C	%	78

This collection of values is drawn from PubChem BioAssay (NCI).
